Measured values drawn from the supplement of paper PMC10567573 for this set.

B1: TRIM29 (parent)
chain: RKCPVHGKTMELFCQTDQTCICYL

Variants of: B1
Experiment: protein stability index of a GFP-peptide fusion (GPS, HEK-293T) (PSI 1-6); higher = more stable;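 also: lentivirally expressed fusions sorted by FACS into six bins by GFP to DsRed ratio, PSI derived from sequencing read proportions per bin multiplied by bin number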
Settings: c terminus: a fixed tail appended
# protein stability index values compiled below
Enter the number alone.

Field: example entries. Status: answers known.
Provide measured protein stability index value, entry: RKCPVHGKKMELFCQTDQTCICYL [T9K]
2.46

Provide measured protein stability index value, entry: RKCPVHGKTMEPFCQTDQTCICYL [L12P]
2.08

Provide measured protein stability index value, entry: RKCPVHGPTMELFCQTDQTCICYL [K8P]
1.48

Provide measured protein stability index value, entry: RKCPVHGCTMELFCQTDQTCICYL [K8C]
1.85

Provide measured protein stability index value, entry: RKCPVHGKTMELFWQTDQTCICYL [C14W]
1.89

Provide measured protein stability index value, entry: RKCPVHGKTMELFCQTCQTCICYL [D17C]
2.08

Provide measured protein stability index value, entry: FKCPVHGKTMELFCQTDQTCICYL [R1F]
1.95

Provide measured protein stability index value, entry: RKCPVHEKTMELFCQTDQTCICYL [G7E]
2.6

Others:
Provide measured protein stability index value, entry: RKCPVHGKTMELFCQTDQTCICWL [Y23W]
1.59

Provide measured protein stability index value, entry: RKCPVHGKTMELFHQTDQTCICYL [C14H]
2.83

Provide measured protein stability index value, entry: RMCPVHGKTMELFCQTDQTCICYL [K2M]
2.17

Provide measured protein stability index value, entry: RKCPVHGKTMEWFCQTDQTCICYL [L12W]
1.08

Provide measured protein stability index value, entry: RKCPVHGKTMELFCQTDQTCICYD [L24D]
5.58

Provide measured protein stability index value, entry: RKCPNHGKTMELFCQTDQTCICYL [V5N]
4.09

Provide measured protein stability index value, entry: RKCPVHGKTMELFCQTFQTCICYL [D17F]
1.49

Provide measured protein stability index value, entry: RKCPVHGKTMELFCQTDQTCICYC [L24C]
4.74

Provide measured protein stability index value, entry: RICPVHGKTMELFCQTDQTCICYL [K2I]
1.94

Provide measured protein stability index value, entry: RKCPVHGKTMELFAQTDQTCICYL [C14A]
2.5

Provide measured protein stability index value, entry: RKFPVHGKTMELFCQTDQTCICYL [C3F]
2.35

Provide measured protein stability index value, entry: RKCPVHGKTMEFFCQTDQTCICYL [L12F]
1.61

Provide measured protein stability index value, entry: RKCPVHGKTMELFCQTDCTCICYL [Q18C]
2.22

Provide measured protein stability index value, entry: HKCPVHGKTMELFCQTDQTCICYL [R1H]
3
